Tested on: SW-620
Test: NCI tumour cell line growth inhibition, 48 h
Active and inactive are the calls of the source. No stated cut-off is given here; in the data, active = GI50 up to about 1.1 µM and inactive = higher.
measured quantity: GI50

Lab note: need GI50 with SW-620 for entry CCNCCNC(=O)c1ccc(I)cc1 , please look it up.
> 100 µM (inactive)

Reported GI50 for SW-620, given O=C(OCc1ccccc1)N(CCCCN(CCCNCc1ccccc1)C(=O)OCc1ccccc1)CCCNCc1ccccc1 ?
0.221 µM (active)

Find the measured GI50: item c1ccc(CN2CCC(CNc3ncnc4ccccc34)C2)cc1 (centres undefined) , target or system SW-620.
> 100 µM (inactive)

Could you now consider this next molecule?
Return GI50 measured with SW-620 given this molecule: O=C(Nc1ccccc1)c1cc2ccccc2c(/N=N/c2ccc([N+](=O)[O-])cc2)c1O
> 100 µM (inactive)
